Data origin, for the record: ChEMBL document CHEMBL5380836

experiment: Efflux ratio of apparent permeability from basolateral to apical side over apical to basolateral side in MDCKII-MDR1 cells at 2 uM incubated for 2.5 hrs by LC-MS/MS analysis; format: ADME, cell-based, Canis lupus familiaris; conditions: dog, MDCK-MDR1
readout name: efflux ratio at 2.5 h, 2 µM
The answer should be a number; do not append a unit.

Write down efflux ratio at 2.5 h, 2 µM measured for item "CCOc1ccc2c(=O)n(-c3ccc4nc5n(c4c3)CCN(C)C5)c(=O)n(-c3ccc(OC(F)F)cc3)c2n1"
8
